- System: HL-60
- assay: NCI tumour cell line growth inhibition, 48 h
Calls of active or inactive are those of the source. Rule as the data show it: active = GI50 up to about 1.1 µM and inactive = higher.
Output constraint: value belongs to True for active, False for inactive

Answered examples (5):
>  <molecule>
Oc1cn(-c2ccc(Cl)cc2)nc1-c1nnc(-c2ccccc2)o1

>  <answer-label>
True

$$$$
>  <molecule>
O=C(Nc1ccc(S(=O)(=O)Nc2ncccn2)cc1)c1c2ccccc2nc2ccccc12

>  <answer-label>
True

$$$$
>  <molecule>
CCOC(CN(C)C(=O)Nc1ccc(Cl)c(Cl)c1)OCC

>  <answer-label>
False

$$$$
>  <molecule>
Cc1cc(C)c(/C=C2\C(=O)Nc3ccccc32)[nH]1

>  <answer-label>
False

$$$$
>  <molecule>
COC(=O)C1=C(C)N2CCOC2CC1c1ccccc1 (configuration not stated)

>  <answer-label>
False

$$$$

Tell me the assay call for CN1c2ccccc2SC2C(c3ccccc3)=NOC21 (configuration not stated) please.
False

Tell me the assay call for Nc1nc(N)nc(CC(=O)O)n1 please.
False

Tell me the assay call for CC(C)=CC(=O)N1CCN(C(=O)C=C(C)C)CC1 please.
False

Tell me the assay call for COC(=O)C1Cc2c([nH]c3ccccc23)C=N1 (configuration not stated) please.
False

Tell me the assay call for CN(C)c1ccc(/C=C2\Oc3ccccc3C2=O)cc1 please.
False

Tell me the assay call for CCOP(C)(=O)C(Cc1c[nH]c2ccccc12)C(=O)O (configuration not stated) please.
False

Tell me the assay call for COc1ccc(CCc2ccc3c(c2)OCO3)cc1 please.
False
